Data origin, for the record: PubChem BioAssay AID1745844

Test system: rodent lifetime carcinogenesis bioassay, tumor incidence TD50
procedureText: carcinogenic potency in animals, long-term in vivo studies, CPDB compilation (AID 1745844)
studyConditions: rat; strain Fischer 344; males; by gavage; site: adrenal gland + adrenal medulla; lesion: pheochromocytoma, malignant + pheochromocytoma; dosed 94 weeks; study length 104 weeks
observationType: TD50
Lab note: write values as number then unit, every time.

What does the data say about its TD50? Entry: CC(C)=CCl
86.7 mg/kg/day

====

System: rodent lifetime carcinogenesis bioassay, tumor incidence TD50
procedureText: carcinogenic potency in animals, long-term in vivo studies, CPDB compilation (AID 1745844)
studyConditions: mouse; strain C57BL/6J; females; in drinking water; site: duodenum; lesion: several types; types named in the paper; dosed 100 weeks; study length 100 weeks
observationType: TD50 (mg/kg/day)
One number for each entry, in mg/kg/day.

Data request, read-out TD50, for OO
7830

====

System: rodent lifetime carcinogenesis bioassay, tumor incidence TD50
procedureText: carcinogenic potency in animals, long-term in vivo studies, CPDB compilation (AID 1745844)
studyConditions: rat; strain ACI; males; in drinking water; site: forestomach; lesion: papilloma; dosed 52 weeks; study length 52 weeks
observationType: TD50
State the result as a value with its unit after it.

Given the entry CCO , what TD50 was observed with rodent lifetime carcinogenesis bioassay, tumor incidence TD50?
4980 mg/kg/day

====

System: rodent lifetime carcinogenesis bioassay, tumor incidence TD50
procedureText: carcinogenic potency in animals, long-term in vivo studies, CPDB compilation (AID 1745844)
studyConditions: rat; strain Fischer; females; in feed; site: mammary gland; lesion: adenocarcinoma; dosed 75 weeks; study length 75 weeks
observationType: TD50

Given the molecule COc1cc2c(cc1N)oc1ccccc12 , what is its reported TD50?
205 mg/kg/day

====

Test system: rodent lifetime carcinogenesis bioassay, tumor incidence TD50
procedureText: carcinogenic potency in animals, long-term in vivo studies, CPDB compilation (AID 1745844)
studyConditions: mouse; strain B6C3F1; males; inhaled; site: lung; lesion: alveolar/bronchiolar adenoma; dosed 26 weeks; study length 53 weeks
observationType: TD50 (mg/kg/day)
Numbers only, in mg/kg/day.

Endpoint output: TD50 of C=CC(=C)C . Value?
836

====

Test system: rodent lifetime carcinogenesis bioassay, tumor incidence TD50
procedureText: carcinogenic potency in animals, long-term in vivo studies, CPDB compilation (AID 1745844)
studyConditions: rat; strain Fischer 344; females; inhaled; site: all sites; lesion: hemangiosarcoma; dosed 78 weeks; study length 104 weeks
observationType: TD50

I would be grateful if you could share the reported TD50 for C=CCl .
32.8 mg/kg/day

====

Tested on: rodent lifetime carcinogenesis bioassay, tumor incidence TD50
procedureText: carcinogenic potency in animals, long-term in vivo studies, CPDB compilation (AID 1745844)
studyConditions: rat; strain Fischer 344; females; by gavage; site: nasal cavity; lesion: adenocarcinoma + adenoma, NOS + carcinoma, NOS + squamous-cell carcinoma; dosed 100 weeks; study length 104 weeks
observationType: TD50

Fill in: TD50 of CC(C)=CCl is ___
34.3 mg/kg/day

====

Test system: rodent lifetime carcinogenesis bioassay, tumor incidence TD50
procedureText: carcinogenic potency in animals, long-term in vivo studies, CPDB compilation (AID 1745844)
studyConditions: rat; strain Buffalo; females; in feed; site: ovary; lesion: granulosa-cell carcinoma; dosed 47 weeks; study length 88 weeks
observationType: TD50 (mg/kg/day)
One number for each entry, in mg/kg/day.

For the compound shown here, CC(=O)Nc1cccc2c1Cc1ccccc1-2 , give the reported TD50.
54.8
